Tested on: Pseudomonas aeruginosa
assay-notes: Inhibition of Pseudomonas aeruginosa PAM1723 MexAB-OprM assessed as drug level required to decrease MIC of levofloxacin
observable: Activity (µg/mL)
Give bare numbers, in µg/mL.

Illustrative cases are given below, each with its answer.
>  <molecule>
CC(C)(C)c1csc(NC(=O)c2ccn3c(=O)c(/C=C/c4nnn[nH]4)c(N4CCC[C@@H](OC(=O)NCC[N+](C)(C)C)C4)nc3c2)n1

>  <tested-on>
Pseudomonas aeruginosa

>  <unit-abbreviation>
µg/mL

>  <reported-result>
2

$$$$
>  <molecule>
CC(C)(C)c1csc(NC(=O)c2ccn3c(=O)c(/C=C/c4nnn[nH]4)c(N4CCC[C@@H](OC(=O)NCC[N+](C)(C)CC(N)=O)C4)nc3c2)n1

>  <tested-on>
Pseudomonas aeruginosa

>  <unit-abbreviation>
µg/mL

>  <reported-result>
4

$$$$
>  <molecule>
CC(C)(C)c1csc(NC(=O)c2ccn3c(=O)c(/C=C/c4nnn[nH]4)c(N4CCC[C@@H](CC(=O)NCC[N+](C)(C)CC(=O)[O-])C4)nc3c2)n1

>  <tested-on>
Pseudomonas aeruginosa

>  <unit-abbreviation>
µg/mL

>  <reported-result>
4

$$$$
>  <molecule>
CC(C)(C)c1csc(NC(=O)c2ccn3c(=O)c(/C=C/c4nnn[nH]4)c(N4CCC(OC(=O)NCC[N+](C)(C)CC(=O)[O-])CC4)nc3c2)n1

>  <tested-on>
Pseudomonas aeruginosa

>  <unit-abbreviation>
µg/mL

>  <reported-result>
8

$$$$
>  <molecule>
CC(C)(C)c1csc(NC(=O)c2ccn3c(=O)c(/C=C/c4nnn[nH]4)c(N4CCC[C@@H](OC(=O)NCCC[N+](C)(C)CC(=O)[O-])C4)nc3c2)n1

>  <tested-on>
Pseudomonas aeruginosa

>  <unit-abbreviation>
µg/mL

>  <reported-result>
4

$$$$

# return Activity for each item in the list
1. CN(C)CCNC(=O)O[C@@H]1CCCN(c2nc3cc(C(=O)Nc4nc(C(C)(C)C)cs4)ccn3c(=O)c2/C=C/c2nnn[nH]2)C1
2. CC(C)(C)c1csc(NC(=O)c2ccn3c(=O)c(/C=C/c4nnn[nH]4)c(N4CCC[C@@H](OC(N)=O)C4)nc3c2)n1

// result
[2, 0.5]

For the 2 compounds below, give their Activity values.
1. CC(C)(C)c1csc(NC(=O)c2ccn3c(=O)c(/C=C/c4nnn[nH]4)c(N4CCC/C(=C\C(=O)NCC[N+](C)(C)CC(=O)[O-])C4)nc3c2)n1
2. CC(C)(C)c1csc(NC(=O)c2ccn3c(=O)c(/C=C/c4nnn[nH]4)c(N4CCC[C@@H](OC(=O)NCC[N+](C)(C)CC(=O)[O-])C4)nc3c2)n1

// result
1. 16
2. 2

###

System: Pseudomonas aeruginosa
assay-notes: Inhibition of Pseudomonas aeruginosa PAM1723 MexAB-OprM assessed as drug level required to decrease MIC of levofloxacin in presence of 0.125% HAS
observable: Activity (µg/mL)
Answers are plain numbers, in µg/mL.

>  <molecule>
CC(C)(C)c1csc(NC(=O)c2ccn3c(=O)c(/C=C/c4nnn[nH]4)c(N4CCC[C@@H](OC(=O)NCC[N+](C)(C)C)C4)nc3c2)n1

>  <Activity / µg/mL>
4

$$$$
>  <molecule>
CC(C)(C)c1csc(NC(=O)c2ccn3c(=O)c(/C=C/c4nnn[nH]4)c(N4CCC[C@@H](OC(N)=O)C4)nc3c2)n1

>  <Activity / µg/mL>
2

$$$$
>  <molecule>
CC(C)(C)c1csc(NC(=O)c2ccn3c(=O)c(/C=C/c4nnn[nH]4)c(N4CCC[C@@H](OC(=O)NCC[N+](C)(C)CC(N)=O)C4)nc3c2)n1

>  <Activity / µg/mL>
4

$$$$
>  <molecule>
CC(C)(C)c1csc(NC(=O)c2ccn3c(=O)c(/C=C/c4nnn[nH]4)c(N4CCC[C@@H](OC(=O)NCC[N+](C)(C)CC(=O)[O-])C4)nc3c2)n1

>  <Activity / µg/mL>
4

$$$$
>  <molecule>
CC(C)(C)c1csc(NC(=O)c2ccn3c(=O)c(/C=C/c4nnn[nH]4)c(N4CCC(OC(=O)NCC[N+](C)(C)CC(=O)[O-])CC4)nc3c2)n1

>  <Activity / µg/mL>
16

$$$$

// query Would you mind telling me what Activity value was observed for `CN(C)CCNC(=O)O[C@@H]1CCCN(c2nc3cc(C(=O)Nc4nc(C(C)(C)C)cs4)ccn3c(=O)c2/C=C/c2nnn[nH]2)C1` ?
// result 4
